The reported numbers originate from PubChem BioAssay.

- method-description: probe aLAP1 signal on lysate-treated microarray – cell lysate, small-molecule microarray, COS7 lysate, primary screen (AID 1124);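 also: lysate comes from COS7 cells expressing LAP1 and is applied at 0.3 µg/mL; score merges spot fluorescence near 667 nm with signal-to-noise over triplicate slides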
- experimental-context: probe aLAP1, fluorescence, higher = more signal
test-readout: composite z-score

# molecule, assay-result
records = [
    ("COc1ccc(CCNC(=O)[C@@]2(c3ccc([N+](=O)[O-])cc3)CC(=O)N(C3CCCCC3)[C@@H]2c2ccc(CO)cc2)cc1", 0.0344),
    ("COc1ccc([Si](C)(C)[C@H]2[C@H](CC(=O)N(CCO)Cc3ccccc3)O[C@@]3(C(=O)N(C)c4c(Br)cc(C)cc43)[C@@H]2C)cc1", 0.0123),
    ("CCCC=C(CCC)[C@@H](NC(=O)C(C)(C)C)c1ccc(C(=O)OC)cc1", 0.103),
    ("CCOC(=O)C[C@H]1[C@H](OC(=O)c2ccc(C(=O)c3ccccc3)cc2)[C@@H](NC(=O)c2ccc(-c3ccccc3)cc2)c2cc(OCCCO)ccc2N1C(=O)Cc1ccc(OC)cc1", 0.0285),
    ("COC(=O)[C@@H]1N=C(c2ccc(OCCCO)cc2)O[C@@H]1C", 0.905),
    ("C=CC[C@]1(C(=O)N2CCCCC2)N=C(c2ccc(OCCCO)cc2)O[C@H]1c1ccccc1CN=[N+]=[N-]", 0.817),
    ("CCOC(=O)C[C@H]1[C@H](OC(=O)c2ccccc2-c2ccccc2)[C@@H](NC(=O)c2ccc3ccccc3n2)c2cc(OCCCO)ccc2N1C(=O)Cc1ccc(OC)cc1", 0.134),
    ("COCCOC(=O)N1C(=O)[C@@]2(c3cc(C#CC4(O)CCCCCC4)ccc31)[C@H](c1ccc(O)cc1)N1[C@H](c3ccccc3)[C@H](c3ccccc3)OC(=O)[C@H]1[C@@H]2C(=O)N1CCN(c2ncccn2)CC1", 0.46),
    ("CC(C)c1ccc(NN2C(C(O)c3ccc(F)cc3)C=CC3C(=O)N(c4ccccc4)C(=O)C32)cc1 (centres undefined)", 0.846),
    ("COC(=O)[C@@]1(Cc2ccc(F)cc2)[C@H]2c3cc(C(=O)N(C)C)n(Cc4ccc(OC(F)(F)F)cc4)c3C[C@H]2CN1C(=O)c1ccccc1", 0.0642),
    ("C=CCC(OC(C)=O)[C@@H]1[C@@H](N(Cc2cccc3ccccc23)C(=O)Cc2ccc(F)cc2)c2cc(OCCCO)ccc2N1C(=O)c1ccc2ccccc2c1 (some centres undefined)", -0.353),
    ("O=C1N(CCS(=O)(=O)c2ccccc2)c2ccccc2[C@H]2OC(c3ccc(OCCCO)cc3)=N[C@@]12Cc1ccccc1", 0.991),
    ("COCCOC(=O)N1C(=O)[C@@]2(c3ccccc31)[C@H](c1ccc(O)cc1)N1[C@H](c3ccccc3)[C@H](c3ccccc3)OC(=O)[C@H]1[C@@H]2C(=O)N1CCN(c2ncccn2)CC1", 1.03),
    ("[N-]=[N+]=Nc1ccccc1C[C@@]1(C(=O)NCCN2CCOCC2)N=C(c2ccc(OCCCO)cc2)O[C@@H]1c1ccccc1N=[N+]=[N-]", 0.865),
    ("CC(C)C(O)C1C=CC2C(=O)N(c3ccccc3)C(=O)C2N1Nc1ccccc1 (centres undefined)", 0.281),
    ("[N-]=[N+]=NCc1ccccc1C[C@@]1(C(N)=O)N=C(c2ccc(OCCCO)cc2)O[C@@H]1c1ccccc1", 0.368),
    ("O=C(c1ccccc1)N1C(=O)[C@]2(Cc3ccccc31)N=C(c1ccc(OCCCO)cc1)O[C@@H]2c1ccccc1", 0.356),
    ("NC(=O)NCC#Cc1ccc2c(c1)[C@]1(C(=O)N2)[C@H](c2ccccc2OCCO)N2[C@H](c3ccccc3)[C@H](c3ccccc3)OC(=O)[C@H]2[C@@H]1C(=O)NC[C@H](O)c1ccccc1", 0.428),
    ("CCOC(=O)[C@@H]1CCCCN1C(=O)C(=O)OC", 0.193),
    ("O=C1C2C=CC(C(O)c3ccco3)N(Nc3ccccc3F)C2C(=O)N1c1ccccc1 (centres undefined)", 0.433),
    ("COc1ccc(C#Cc2ccc3c(c2)[C@]2(C(=O)N3)[C@H](C(=O)O)[C@H]3C(=O)O[C@H](c4ccccc4)[C@H](c4ccccc4)N3[C@@H]2c2ccc(O)cc2)cc1", 0.577),
    ("COCCCNC(=O)[C@@]1(Sc2ccc(C)cc2)CC(=O)N(C2Cc3ccccc3C2)[C@@H]1c1ccc(CO)cc1", 0.352),
    ("CN(C)c1ccc(C(O)C2C=CC3C(=O)NC(=O)C3N2Nc2ccccn2)cc1 (centres undefined)", 0.282),
    ("COc1ccc(CCNC(=O)[C@@H]2c3ccccc3C(=O)N(C3CCCCC3)[C@H]2c2ccc(CO)cc2)cc1", 0.922),
    ("CC1=C2[C@@H](CCc3ccccc3)OB(O)C[C@@H]2[C@@H]2C(=O)N(Cc3ccccc3)C(=O)[C@@H]2C1", -0.294),
    ("O=C(NCCN1CCOCC1)[C@@H]1c2ccccc2C(=O)N(Cc2ccccc2Cl)[C@H]1c1ccc(CO)cc1", 1.67),
    ("C[N+](C)(C)CCCC[C@@H]1NC(=O)[C@@H]2C[C@H](C(=O)NCCCCCCN)[C@H](c3cccc(OCCO)c3)N2C1=O", 0.731),
    ("CCCNC(=O)[C@@]1(C)c2ccccc2C(=O)N(c2ccc(C)cn2)[C@H]1c1ccc(CO)cc1", -0.105),
    ("COc1ccc([Si](C)(C)[C@H]2[C@H](CC(=O)N3Cc4ccccc4C[C@H]3CO)O[C@@]3(C(=O)N(Cc4ccc(N5CCOC5=O)cc4)c4ccccc43)[C@@H]2C)cc1", 0.246),
]
